Consider molecules characterized by their IC50 with Cytochrome P450 2C9 (Homo sapiens, UniProt P11712).
Sequence (P11712 whole entry): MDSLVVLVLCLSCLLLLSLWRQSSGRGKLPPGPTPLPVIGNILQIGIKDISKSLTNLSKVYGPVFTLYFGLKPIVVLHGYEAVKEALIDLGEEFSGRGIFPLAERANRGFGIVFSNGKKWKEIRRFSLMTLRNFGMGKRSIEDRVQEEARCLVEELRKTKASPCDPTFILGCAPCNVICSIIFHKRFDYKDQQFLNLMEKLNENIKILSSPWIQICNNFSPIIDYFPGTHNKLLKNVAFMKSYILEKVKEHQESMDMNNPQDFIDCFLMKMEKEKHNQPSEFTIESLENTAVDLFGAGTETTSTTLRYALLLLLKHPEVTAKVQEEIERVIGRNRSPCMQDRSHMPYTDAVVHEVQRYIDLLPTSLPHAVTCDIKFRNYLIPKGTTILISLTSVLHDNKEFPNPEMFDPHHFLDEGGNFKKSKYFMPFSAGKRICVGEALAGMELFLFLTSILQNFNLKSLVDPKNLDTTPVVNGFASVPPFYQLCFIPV

Reference set, count: 2
1) C[C@H](Nc1cc(-c2sc(C3CCN(C)CC3)nc2-c2ccc(F)cc2)ccn1)c1ccccc1 > 2000 nM
2) CN1CCC(O)(c2cn(-c3ccnc(NC4CCCC4)n3)c(-c3cccc(C(F)(F)F)c3)n2)CC1 > 2000 nM

Here is another molecule to look at.
Measured IC50 (Cytochrome P450 2C9 (Homo sapiens, UniProt P11712)), entry `CN1CCN(c2ccc3c(n2)nc(-c2ccc(F)cc2)n3-c2ccnc(NC3CCCC3)n2)CC1` : > 2000 nM
